From: the supplement of paper PMC10567573

protein stability index listing for selected variants.
B1: PI4K2A (parent)
chain: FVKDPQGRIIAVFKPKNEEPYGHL

Variants of: B1
ASSAY OVERVIEW: protein stability index of a GFP-peptide fusion (GPS, HEK-293T) (PSI 1-6); higher = more stable;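 also: lentivirally expressed fusions sorted by FACS into six bins by GFP to DsRed ratio, PSI derived from sequencing read proportions per bin multiplied by bin number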
TEST PARAMETERS: c terminus: a fixed tail appended

- VAR: "P5N"
  protein stability index: 2.29
- VAR: "E19W"
  protein stability index: 2.91
- VAR: "P20D"
  protein stability index: 2.05
- VAR: "F13V"
  protein stability index: 1.92
- VAR: "Q6D"
  protein stability index: 2.4
- VAR: "Y21P"
  protein stability index: 2.17
- VAR: "N17E"
  protein stability index: 2.33
- VAR: "E18I"
  protein stability index: 2.22
- VAR: "H23R"
  protein stability index: 1.79
- VAR: "H23Y"
  protein stability index: 1.78
- VAR: "N17T"
  protein stability index: 1.92
- VAR: "V12C"
  protein stability index: 2.04
- VAR: "D4C"
  protein stability index: 2.08
- VAR: "I10V"
  protein stability index: 1.88
- VAR: "Q6Y"
  protein stability index: 1.6
- VAR: "E19G"
  protein stability index: 1.67
- VAR: "V2Y"
  protein stability index: 1.95
- VAR: "V12E"
  protein stability index: 1.74
- VAR: "I9D"
  protein stability index: 3.44
- VAR: "N17P"
  protein stability index: 2
- VAR: "G22R"
  protein stability index: 2.37
- VAR: "E19C"
  protein stability index: 2.52
- VAR: "P15G"
  protein stability index: 2.5
- VAR: "G22M"
  protein stability index: 2.1
- VAR: "K3G"
  protein stability index: 2.56
- VAR: "K14L"
  protein stability index: 2.08
- VAR: "P5T"
  protein stability index: 1.67
- VAR: "V2F"
  protein stability index: 2.17
- VAR: "I10C"
  protein stability index: 2.23
- VAR: "E19K"
  protein stability index: 2.58
- VAR: "L24S"
  protein stability index: 2.1
- VAR: "K16A"
  protein stability index: 1.91
- VAR: "N17F"
  protein stability index: 1.57
- VAR: "V2Q"
  protein stability index: 1.99
- VAR: "K14A"
  protein stability index: 2.09
- VAR: "R8H"
  protein stability index: 1.93
- VAR: "V12H"
  protein stability index: 2.9
